test: pKa and pH-dependent solubility; assay type: physicochemical
Measurement Label: pKa

[[record]]
smiles_code = "COC(=O)Nc1c(N)nc(-c2nn(Cc3ccccc3F)c3ncc(F)cc23)nc1N"
measurement_label = "pKa"
measurement = 4.7


---

Target: organic cation transporter 1 (Homo sapiens)
Sequence (O15245 1-554): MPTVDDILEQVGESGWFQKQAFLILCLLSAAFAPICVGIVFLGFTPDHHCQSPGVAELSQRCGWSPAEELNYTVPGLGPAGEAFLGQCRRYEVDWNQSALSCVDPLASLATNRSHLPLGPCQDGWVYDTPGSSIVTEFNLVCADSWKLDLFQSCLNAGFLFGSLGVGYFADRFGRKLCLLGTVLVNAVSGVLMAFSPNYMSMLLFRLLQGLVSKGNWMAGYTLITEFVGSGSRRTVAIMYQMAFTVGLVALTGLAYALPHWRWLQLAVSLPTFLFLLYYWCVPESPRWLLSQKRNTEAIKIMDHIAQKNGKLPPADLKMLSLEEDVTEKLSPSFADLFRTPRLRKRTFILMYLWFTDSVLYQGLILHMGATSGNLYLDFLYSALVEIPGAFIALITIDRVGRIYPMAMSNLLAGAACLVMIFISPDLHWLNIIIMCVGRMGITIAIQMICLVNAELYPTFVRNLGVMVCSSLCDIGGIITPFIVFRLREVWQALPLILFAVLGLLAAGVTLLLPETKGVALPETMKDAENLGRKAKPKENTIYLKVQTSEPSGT
Measurement Label: IC50

[[record]]
molecule = "COC(=O)Nc1c(N)nc(-c2nn(Cc3ccccc3F)c3ncc(F)cc23)nc1N [Vericiguat]"
experimental_target = "organic cation transporter 1 (Homo sapiens)"
measurement = "> 50 µM"


---

target: OAT3 (Homo sapiens)
Sequence (Q8TCC7 whole entry): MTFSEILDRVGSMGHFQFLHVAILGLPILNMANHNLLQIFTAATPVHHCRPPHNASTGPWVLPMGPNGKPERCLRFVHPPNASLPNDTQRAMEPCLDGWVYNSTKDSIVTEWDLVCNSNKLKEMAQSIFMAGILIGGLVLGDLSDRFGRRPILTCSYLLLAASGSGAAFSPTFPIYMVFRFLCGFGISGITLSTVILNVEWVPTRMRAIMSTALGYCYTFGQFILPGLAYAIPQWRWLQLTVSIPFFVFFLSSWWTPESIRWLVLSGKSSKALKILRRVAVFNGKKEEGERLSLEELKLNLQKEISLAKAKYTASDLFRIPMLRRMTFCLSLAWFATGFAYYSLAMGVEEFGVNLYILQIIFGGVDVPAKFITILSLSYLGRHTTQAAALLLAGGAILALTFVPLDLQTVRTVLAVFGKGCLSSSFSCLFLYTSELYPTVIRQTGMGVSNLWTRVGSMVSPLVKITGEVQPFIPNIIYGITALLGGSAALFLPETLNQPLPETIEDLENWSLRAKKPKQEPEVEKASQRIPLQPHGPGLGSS
Measurement Label: IC50

[[record]]
smiles_code = "COC(=O)Nc1c(N)nc(-c2nn(Cc3ccccc3F)c3ncc(F)cc23)nc1N"
measurement = "> 5 µM"

